The reported measurements were obtained from PubChem BioAssay (NCI).

System: K-562 leukemia
Test: NCI tumour cell line growth inhibition, 48 h; in the data active means GI50 below about 0.43 µM; inactive means the rest
Pick from t = active, f = inactive when you respond.

Please share the test call associated with O=c1c(-c2ccc(O)cc2)coc2cc(OC3OC(CO)C(O)C(O)C3O)cc(O)c12 (stereo not given) .
f

Tell me the assay call for O=S(=O)(Nc1ccc2ccccc2c1)c1ccc(-c2cnc(C3CC3)o2)cc1 please.
t

Called result for O=C(Nc1cccc(Cl)c1)c1cc(N=Nc2ccc([N+](=O)[O-])cc2Cl)ccc1O
f

Tell me the recorded outcome of this test for CC[C@@H](C)Nc1cc(C(=O)NC2CC3CCC(C2)N3c2ccc(C(=O)C3CC3)cn2)c(C)cc1C(N)=O (stereo not given in full) .
t

Could you kindly confirm the outcome this assay logged for O=C(NNC(=S)Nc1ccccc1)c1ccccn1 ?
f
